This listing pairs molecules with measured TGI.
System: K-562 leukemia
assay_details: NCI tumour cell line growth inhibition, 48 h
parameter: TGI

molecule	reported_value
COc1ccc(/C=C/C(=O)C(C)C)cc1	> 100 µM
COc1ccccc1N1C(=O)C2C3c4ccccc4C(OC(C)=O)(c4ccccc43)C2C1=O (stereo not given)	> 100 µM
O=C(O)/C=N/NC(=S)NC1CCCCC1	> 100 µM
CC(=O)OCC1OC(OC2=C(CC=C(C)C)C(=O)c3ccccc3C2=O)C(OC(C)=O)C(OC(C)=O)C1OC(C)=O (stereo not given)	> 30.4 µM
COc1nc(NC2OC(COC(C)=O)C(OC(C)=O)C(OC(C)=O)C2OC(C)=O)c(N=CC=Nc2c(NC3OC(COC(C)=O)C(OC(C)=O)C(OC(C)=O)C3OC(C)=O)nc(OC)n(C)c2=O)c(=O)n1C (stereo not given)	> 100 µM
COc1cc(C2c3cc4c(cc3OC(N3CCCCC3)C2C)OCO4)cc(OC)c1OC (stereo not given)	13.7 µM
COc1cc(Nc2cc(C)nc(N3CCN(c4ccnc5cc(Cl)ccc45)CC3)n2)cc(OC)c1	> 61.9 µM
COc1c(OCCCN2CCOCC2)ccc2c3n(c(=NC(=O)c4cnc(N)nc4)nc12)CCN3	> 100 µM
C=C1C(=O)OC2C1CC[C@H](C)C1(O)C(O)CC(=O)[C@@]21C (stereo not given in full)	55.6 µM
COC(=O)C1=C(C)N2CCOC2(C)C(C(=O)OC)C1c1ccc[nH]1 (stereo not given)	> 100 µM

* * *

The following compounds are listed with their measured TGI values.
Test system: HS 578T breast
assay_details: NCI tumour cell line growth inhibition, 48 h

compound	TGI
O=C(CC(=O)Nc1ccccc1Cl)NNC(c1cc(N=Nc2ccc(Br)cc2)ccc1O)P(O)O (stereo not given)	> 10 µM
CC(=O)OC1C[C@@H](C)C2(C[C@H](O)c3ccoc3)C(=O)OC[C@]13C2CCC(O)C31CO1 (stereo not given in full)	> 100 µM
O=C(C(=NC12CC3CC(CC(C3)C1)C2)NNc1ccc([N+](=O)[O-])cc1[N+](=O)[O-])C(Br)C(=O)c1ccccc1 (stereo not given)	> 10 µM
C=CCN(C(=O)OC(C)(C)C)C1=CC2C(C)=CN(S(=O)(=O)c3ccccc3)C2C(OCc2ccccc2)=C1 (stereo not given)	> 100 µM
CC(NC(=O)C(CC(=O)OCc1ccccc1)NC(=O)OCc1ccccc1)c1ccccc1 (stereo not given)	> 100 µM
O=S(=O)(O)c1ccc(N=Nc2ccc(N=Nc3c(O)ccc4cc(S(=O)(=O)O)ccc34)cc2)cc1	> 100 µM
O=C1NC(=NCCc2cccs2)S/C1=C\c1ccc2ncccc2c1	> 21.8 µM
NC(=O)NN=C1C[C@H]2CCCC[C@H]2C1	> 100 µM
C[C@]12CC(c3ccccc3O1)C(C(N)=O)C(=O)N2 (stereo not given in full)	> 100 µM
O=P(O)(OP(=O)(O)c1ccccc1)c1ccccc1 (tested in a mixture with another compound)	> 100 µM
OC(Cc1cccnc1)(c1ccccc1)c1ccccc1	> 100 µM
CCOc1cc(NC(C)=O)ccc1C(=O)NN1C(=O)/C(=C/c2ccco2)N=C1c1ccccc1	> 100 µM
COc1ccc(C2=C(c3cn(C)c4ccccc34)C(=O)NC2=O)cc1	> 25 µM
CCN(CC)c1ccc(N=O)cc1	> 100 µM
COC(=O)/C=C\n1ncc(=O)[nH]c1=O	> 100 µM
COc1ccc(C2=NN(C(=O)c3ccc(Cl)cc3)C(O)(c3cc(F)c(Cl)cc3Cl)C2)cc1OC (stereo not given)	> 100 µM
CC#Cc1nc2ccccc2c(=O)[nH]1	> 100 µM
Cc1ccc(S(=O)(=O)NC(CCC(=O)NN)C(=O)NN)cc1 (stereo not given)	> 100 µM
COc1cc2c(cc1OC)C(=O)/C(=C/c1ccccc1)CC2	> 100 µM
O=C(O)/C=N/NC(=S)NC1CCCCC1	> 100 µM
